- procedure.text: In vivo pharmacokinetics in rat
- Design: species or system male Sprague-Dawley rats
- test.settings: male, Sprague-Dawley, rat, plasma; PO 10.4 mg/kg; mean of R4-R6
parameter.measured: AUC(0-t) (ng·h/mL)
Hi! Could you send only the number? It should be in ng·h/mL, unit omitted.

Record request: AUC(0-t) value, item Cc1c(C(=O)Nc2ccc3c(c2)B(O)OC3)nnn1-c1ccccn1 [Compound 23]
38500

###

- procedure.text: In vivo pharmacokinetics in dog
- Design: species or system male Beagle dogs
- test.settings: male, Beagle, plasma, PO 5 mg/kg, mean, read-out: MRT0-last
parameter.measured: MRT last (h)
Hi! Could you send only the number? It should be in h, unit omitted.

Record request: MRT last value, item "Cc1c(C(=O)Nc2ccc3c(c2)B(O)OC3)nnn1-c1ccccn1"
2.19

###

- procedure.text: Liver microsome stability, hamster
- Assay type: in vitro ADME
- test.settings: golden (Syrian), hamster liver microsomes, pH 7.4, Table 4, read-out: HamLM Clint
parameter.measured: microsomal CLint at 2 h, 1 µM (µL/min/mg)
Hi! Could you send only the number? It should be in µL/min/mg, unit omitted.

Consider the following illustrative entries.
{"columns": ["chem.smiles", "microsomal CLint at 2 h, 1 µM (µL/min/mg)"],
 "data": [
  ["Cc1c(C(=O)Nc2ccc3c(c2)B(O)OC3)cnn1-c1ccccn1", 57],
  ["Cn1nc(-c2ccccn2)cc1C(=O)Nc1ccc2c(c1)B(O)OC2", 121],
  ["O=C(Nc1ccc2c(c1)B(O)OC2)c1cn(C2CCOCC2)nc1C(F)(F)F", 109]
]}

Query molecule follows.
Record request: microsomal CLint at 2 h, 1 µM value, item "COc1cccc(-n2ncc(C(=O)Nc3ccc4c(c3)B(O)OC4)c2C)n1"
40

###

- procedure.text: In vivo pharmacokinetics in rat
- Set-up: species or system male Sprague-Dawley rats
- test.settings: male, Sprague-Dawley, rat, plasma; IV 2.32 mg/kg; mean of R1-R3; read-out: Vdss
parameter.measured: Vd (L/kg)
Hi! Could you send only the number? It should be in L/kg, unit omitted.

Record request: Vd value, item "Cc1c(C(=O)Nc2ccc3c(c2)B(O)OC3)nnn1-c1ccccn1"
0.603

###

- procedure.text: Thermodynamic solubility
- Format: physicochemical
- test.settings: FaSSIF buffer pH 6.5, read-out: FaSSIF solubility
parameter.measured: solubility at 24 h (µg/mL)
Hi! Could you send only the number? It should be in µg/mL, unit omitted.

Record request: solubility at 24 h value, item "Cc1c(C(=O)Nc2ccc3c(c2)B(O)OC3)nnn1-c1ccccn1"
5.4

###

- procedure.text: Liver microsome stability, dog
- Type: in vitro ADME
- test.settings: Beagle, dog liver microsomes, pH 7.4
parameter.measured: microsomal CLint at 1 μM (µL/min/mg)
Hi! Could you send only the number? It should be in µL/min/mg, unit omitted.

Record request: microsomal CLint at 1 μM value, item "Cc1c(C(=O)Nc2ccc3c(c2)B(O)OC3)nnn1-c1ccccn1"
5.8

###

- procedure.text: In vivo pharmacokinetics in rat
- Parameters: species or system male Sprague-Dawley rats
- test.settings: male, Sprague-Dawley, rat, plasma; IV 2.32 mg/kg; mean of R1-R3
parameter.measured: half-life (h)
Hi! Could you send only the number? It should be in h, unit omitted.

Record request: half-life value, item "Cc1c(C(=O)Nc2ccc3c(c2)B(O)OC3)nnn1-c1ccccn1"
2.75

###

- Tested on: MDR1
- procedure.text: in vitro
- Format: in vitro ADME
- test.settings: dog, MDCK-MDR1, pH 7.4
parameter.measured: efflux ratio at 150 min, 2 μM
Answer using only a numeral; do not append any unit.

Record request: efflux ratio at 150 min, 2 μM value, item Cc1c(C(=O)Nc2ccc3c(c2)B(O)OC3)nnn1-c1ccccn1 [Compound 23]
0.68

###

- procedure.text: In vivo pharmacokinetics in dog
- Parameters: species or system male Beagle dogs
- test.settings: male, Beagle, plasma, IV 1.0 mg/kg, 0.25 h, mean
parameter.measured: concentration at 0.25 h (ng/mL)
Hi! Could you send only the number? It should be in ng/mL, unit omitted.

Record request: concentration at 0.25 h value, item "Cc1c(C(=O)Nc2ccc3c(c2)B(O)OC3)nnn1-c1ccccn1"
644

###

- experimental.system: CYP2D6 (Homo sapiens)
- Sequence (P10635 whole entry): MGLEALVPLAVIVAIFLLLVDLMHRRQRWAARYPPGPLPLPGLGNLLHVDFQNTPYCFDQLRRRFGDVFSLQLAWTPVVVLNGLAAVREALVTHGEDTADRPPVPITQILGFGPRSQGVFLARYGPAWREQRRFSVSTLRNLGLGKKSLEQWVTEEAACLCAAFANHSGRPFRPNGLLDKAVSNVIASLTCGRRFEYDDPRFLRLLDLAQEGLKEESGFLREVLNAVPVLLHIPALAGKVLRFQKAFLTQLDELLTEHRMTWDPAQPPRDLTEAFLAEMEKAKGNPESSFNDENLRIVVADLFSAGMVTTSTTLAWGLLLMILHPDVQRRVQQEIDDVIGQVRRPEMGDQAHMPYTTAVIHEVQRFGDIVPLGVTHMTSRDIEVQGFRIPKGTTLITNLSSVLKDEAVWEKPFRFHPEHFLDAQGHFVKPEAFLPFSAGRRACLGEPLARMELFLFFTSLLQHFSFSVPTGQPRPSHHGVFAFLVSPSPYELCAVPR
- procedure.text: CYP inhibition, CYP2D6
- Type: in vitro ADME
- test.settings: human liver microsomes
parameter.measured: IC50

What IC50 appears in the records for this compound with CYP2D6 (Homo sapiens)? Cc1c(C(=O)Nc2ccc3c(c2)B(O)OC3)nnn1-c1ccccn1 [Compound 23]
> 50 µM

###

- procedure.text: Liver microsome stability, hamster
- Assay type: in vitro ADME
- test.settings: golden (Syrian), hamster liver microsomes, pH 7.4, Table 5, read-out: HamLM Clint
parameter.measured: microsomal CLint at 2 h, 1 µM (µL/min/mg)
Hi! Could you send only the number? It should be in µL/min/mg, unit omitted.

{"columns": ["compound", "microsomal CLint at 2 h, 1 µM (µL/min/mg)"],
 "data": [
  ["Cc1oc(C(=O)Nc2ccc3c(c2)B(O)OC3)cc1-c1ccccn1 [Compound 29]", 82],
  ["COc1cccc(-n2nnc(C(=O)Nc3ccc4c(c3)B(O)OC4)c2C)n1 [Compound 25]", 40],
  ["Cc1c(-c2ccccn2)coc1C(=O)Nc1ccc2c(c1)B(O)OC2 [Compound 28]", 40]
]}

Record request: microsomal CLint at 2 h, 1 µM value, item Cc1c(-c2ccccn2)csc1C(=O)Nc1ccc2c(c1)B(O)OC2 [Compound 30]
88

Repeat for the following compound: O=C(Nc1ccc2c(c1)B(O)OC2)c1cn(-c2ccccn2)nn1 [Compound 22]
18

Repeat for the following compound: O=C(Nc1ccc2c(c1)B(O)OC2)c1nnc(-c2ccccn2)o1 [Compound 31]
12

###

- procedure.text: In vivo pharmacokinetics in dog
- Set-up: species or system male Beagle dogs
- test.settings: male, Beagle, plasma, PO 5 mg/kg, 6 h, mean
parameter.measured: concentration at 6 h

Record request: concentration at 6 h value, item "Cc1c(C(=O)Nc2ccc3c(c2)B(O)OC3)nnn1-c1ccccn1"
54.8 ng/mL

###

- procedure.text: MRC5 cytotoxicity assay
- Assay type: cell-based
- test.settings: human, MRC5SV2 cells (human embryonic lung fibroblasts); Table 6; geometric mean of at least two independent tests
parameter.measured: CC50 at 3 days (µM)
Hi! Could you send only the number? It should be in µM, unit omitted.

Record request: CC50 at 3 days value, item "Cc1c(C(=O)Nc2ccc3c(c2)B(O)OC3)cnn1-c1ccccn1"
61.1

###

- procedure.text: In vivo pharmacokinetics in dog
- Design: species or system male Beagle dogs
- test.settings: male, Beagle, plasma, PO 5 mg/kg, 0.25 h, mean
parameter.measured: concentration at 0.25 h (ng/mL)
Hi! Could you send only the number? It should be in ng/mL, unit omitted.

Record request: concentration at 0.25 h value, item Cc1c(C(=O)Nc2ccc3c(c2)B(O)OC3)nnn1-c1ccccn1 [Compound 23]
1130

###

- experimental.system: CYP2C19 (Homo sapiens, UniProt P33261)
- Sequence (P33261 whole entry): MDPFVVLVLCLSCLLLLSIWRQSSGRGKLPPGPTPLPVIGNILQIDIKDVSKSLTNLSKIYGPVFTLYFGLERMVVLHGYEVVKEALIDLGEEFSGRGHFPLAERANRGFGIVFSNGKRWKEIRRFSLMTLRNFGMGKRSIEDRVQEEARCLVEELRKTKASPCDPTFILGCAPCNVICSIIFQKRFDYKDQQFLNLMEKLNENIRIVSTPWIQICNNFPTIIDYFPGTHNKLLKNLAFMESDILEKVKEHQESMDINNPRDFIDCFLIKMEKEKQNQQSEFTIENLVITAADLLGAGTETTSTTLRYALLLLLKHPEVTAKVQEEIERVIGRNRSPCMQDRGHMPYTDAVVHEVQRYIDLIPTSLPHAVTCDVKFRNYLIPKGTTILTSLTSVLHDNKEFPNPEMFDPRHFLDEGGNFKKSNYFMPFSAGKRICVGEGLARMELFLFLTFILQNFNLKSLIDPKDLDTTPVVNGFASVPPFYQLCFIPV
- procedure.text: CYP inhibition, CYP2C19
- Type: in vitro ADME
- test.settings: human liver microsomes
parameter.measured: IC50

Record request: IC50 value, item Cc1c(C(=O)Nc2ccc3c(c2)B(O)OC3)nnn1-c1ccccn1 [Compound 23]
> 50 µM

###

- procedure.text: PMM cytotoxicity assay
- Assay type: cell-based
- test.settings: mouse, primary peritoneal mouse macrophages (PMM); Table 5; geometric mean of at least two independent tests
parameter.measured: CC50 at 72 h (µM)
Hi! Could you send only the number? It should be in µM, unit omitted.

Record request: CC50 at 72 h value, item "Cc1c(-c2ccccn2)coc1C(=O)Nc1ccc2c(c1)B(O)OC2"
49

Repeat for the following compound: "Cc1c(-c2ccccn2)csc1C(=O)Nc1ccc2c(c1)B(O)OC2"
32

Repeat for the following compound: "COc1cccc(-n2nnc(C(=O)Nc3ccc4c(c3)B(O)OC4)c2C)n1"
32

Repeat for the following compound: "Cc1oc(C(=O)Nc2ccc3c(c2)B(O)OC3)cc1-c1ccccn1"
29

###

- procedure.text: PMM cytotoxicity assay
- Type: cell-based
- test.settings: mouse, primary peritoneal mouse macrophages (PMM); Table 4; geometric mean of at least two independent tests
parameter.measured: CC50 at 72 h (µM)
Hi! Could you send only the number? It should be in µM, unit omitted.

{"columns": ["compound", "CC50 at 72 h / µM"],
 "data": [
  ["Cc1c(C(=O)Nc2ccc3c(c2)B(O)OC3)cnn1-c1ccccn1 [Compound 16]", 59],
  ["CCCCCCCCCCCCCCCCOP(=O)([O-])OCC[N+](C)(C)C [miltefosine, reference compound]", 33],
  ["O=C(Nc1ccc2c(c1)B(O)OC2)c1cc(-c2ccccn2)n[nH]1 [Compound 19]", 32]
]}

Record request: CC50 at 72 h value, item O=C(Nc1ccc2c(c1)B(O)OC2)c1cn(CC(F)(F)F)nc1C(F)(F)F [Compound 5]
50

Repeat for the following compound: O=C(Nc1ccc2c(c1)B(O)OC2)c1cn(CCC(F)(F)F)nc1C(F)(F)F [Compound 6]
38

Repeat for the following compound: O=C(Nc1ccc2c(c1)B(O)OC2)c1cn(C2CCC2)nc1C(F)(F)F [Compound 9]
32
